B1: TBX5 (parent)
chain: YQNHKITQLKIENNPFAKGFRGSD

Variants of: B1
method_notes: protein stability index of a GFP-peptide fusion (GPS, HEK-293T) (PSI 1-6); higher = more stable;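 further: lentivirally expressed fusions sorted by FACS into six bins by GFP to DsRed ratio, PSI derived from sequencing read proportions per bin multiplied by bin number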
condition_notes: c terminus: a fixed tail appended
For each record, write down the corresponding protein stability index.

See these solved cases before continuing.
>>> print(df.to_string())
                construct_sequence  test_result
0  YQNHKITQLKIENNPFAKGFRVSD [G22V]         2.32
1  YQNHKITQLKIENNPFARGFRGSD [K18R]         2.77
2   YQNHHITQLKIENNPFAKGFRGSD [K5H]         2.03
3  YQNHKITQLKIENMPFAKGFRGSD [N14M]         2.05
4  YQNHKITQLKIENNPYAKGFRGSD [F16Y]         2.46
5   IQNHKITQLKIENNPFAKGFRGSD [Y1I]         3.32

Please give protein stability index, item by item, for the list that follows.
1. YQNHKITQLKIERNPFAKGFRGSD [N13R]
2. YQNHKITQLKIENNPFAKGFRGAD [S23A]
3. YQFHKITQLKIENNPFAKGFRGSD [N3F]

Result block:
1. 2.46
2. 2.25
3. 2.23
